# TARGET_OF_ASSAY: CCR2 receptor (Homo sapiens, UniProt P41597)
# Sequence (P41597 whole entry): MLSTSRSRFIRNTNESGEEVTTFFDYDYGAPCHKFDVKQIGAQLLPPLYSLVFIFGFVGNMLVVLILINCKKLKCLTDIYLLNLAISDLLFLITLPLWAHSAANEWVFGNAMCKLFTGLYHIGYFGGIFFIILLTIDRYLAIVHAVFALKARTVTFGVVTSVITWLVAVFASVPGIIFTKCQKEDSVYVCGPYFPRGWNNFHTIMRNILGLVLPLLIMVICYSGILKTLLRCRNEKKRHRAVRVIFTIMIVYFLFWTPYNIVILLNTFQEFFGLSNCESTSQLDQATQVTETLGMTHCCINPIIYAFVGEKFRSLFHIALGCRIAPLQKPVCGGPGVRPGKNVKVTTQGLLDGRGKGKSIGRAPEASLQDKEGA
# PROTOCOL: Calcium activity assay on FLIPR Tetra in HEK-Gqi5 cells stably expressing CCR2
QUANTITY_KIND: IC50 (µM)

Look over these answered cases.
>  <MOLECULE>
O=C(O)c1ccccc1C[S+]([O-])c1ccc(Cl)cc1NS(=O)(=O)c1cc2ccccc2o1 (stereo not drawn)

>  <UNIT_DESCRIPTOR>
µM

>  <EXPERIMENTAL_RESULT>
0.806

$$$$
>  <MOLECULE>
O=C(NCCN1CCCC1)c1ccc(CSc2ccc(Cl)cc2NS(=O)(=O)c2ccc(Cl)c(C(F)(F)F)c2)cc1

>  <UNIT_DESCRIPTOR>
µM

>  <EXPERIMENTAL_RESULT>
2.32

$$$$

[P] COC(=O)CCSc1ccc(Cl)cc1NS(=O)(=O)c1ccc(Cl)cc1F
[Q] COC(=O)c1ccccc1CSc1ccc(F)cc1NS(=O)(=O)c1cc2ccccc2o1
[R] O=C(CC[S+]([O-])c1ccc(Cl)cc1NS(=O)(=O)c1ccc(Cl)c(C(F)(F)F)c1)N1CCCC1 (stereo not drawn)
List by increasing IC50. # respond with the labels, arranged in the requested order
Q, P, R
(Q: 0.272 µM, P: 0.995 µM, R: 1.66 µM)

[A] CCN(C)C(=O)CC[S+]([O-])c1ccc(Cl)cc1NS(=O)(=O)c1ccc(Cl)cc1F (stereo not drawn)
[B] O=C(O)CCSc1ccc(Cl)cc1NS(=O)(=O)c1ccc(Cl)cc1F
Lab note: check whether A or B has the lower measured IC50. Pick one and reply with its label.
B

[A] O=S(=O)(Nc1cc(Cl)ccc1[S+]([O-])Cc1ccccc1)c1ccc(Cl)c(C(F)(F)F)c1 (stereo not drawn)
[B] O=C1CCc2cc(NS(=O)(=O)c3cc4ccccc4o3)c(S(=O)(=O)Cc3ccccc3)cc21
Lab note: check whether A or B has the lower measured IC50. Pick one and reply with its label.
A

###

# TARGET_OF_ASSAY: CCR2 receptor (Homo sapiens)
# Construct: expressed in transfected cells
# PROTOCOL: Calcium activity assay on FLIPR Tetra in HEK-Gqi5 cells stably expressing CCR2
# Format: cell-based
QUANTITY_KIND: CCR2 % ANTAGONISM (%)

Look over these answered cases.
>  <MOLECULE>
CC(C)(C)OC(=O)CNC(=O)c1ccc(CSc2ccc(Cl)cc2NS(=O)(=O)c2ccc(Cl)c(C(F)(F)F)c2)cc1

>  <TARGET_OF_ASSAY>
CCR2 receptor (Homo sapiens)

>  <CCR2 % ANTAGONISM, %>
43

$$$$
>  <MOLECULE>
O=C(O)c1ccccc1CS(=O)(=O)c1ccc(F)cc1NS(=O)(=O)c1cc2ccccc2o1

>  <TARGET_OF_ASSAY>
CCR2 receptor (Homo sapiens)

>  <CCR2 % ANTAGONISM, %>
89

$$$$

[a] COC(=O)CC[S+]([O-])c1ccc(Cl)cc1NS(=O)(=O)c1cc2ccccc2o1 (stereo not drawn)
[b] O=C(NCC[N+]1([O-])CCCC1)c1cccc(CS(=O)(=O)c2ccc(Cl)cc2NS(=O)(=O)c2ccc(Cl)c(C(F)(F)F)c2)c1
Please state the entry with greater CCR2 % ANTAGONISM among a and b . Pick one and reply with its label.
a
(a: 99%, b: 51%)

Cited source: patent US8822530B2
